Target: C4-2 cells
Assay: flow cytometry; C4-2 cells; apparent Kd
pKd: −log10 of the molar value. No end group written: not given here.
property_measured: pKd

| binder | property_measured | data_value |
| --- | --- | --- |
| SGYQTFYWPGPI (also: FAM label, position not given here) [Scrambled GTI] | pKd | < 4.00 |

These data points were gathered from patent US20170240596A1.
